Listed here: items and their measured IC50.
System: MDCK-B1 cells
Test: MTT viability assay, MDCK-B1 (wild-type Pgp)
Assay type: cell-based, canine
Details: Canis lupus familiaris, 72 h, MTT 72 h, absence of Tariquidar

compound | IC50 / µM
Oc1c(CN2CCOCC2)ccc2cccnc12 | 12
Oc1c(CNCc2ccccc2F)cc(Cl)c2cccnc12 | 0.89
Oc1cccc2cccnc12 [Compound Q-1, 8-Hydroxyquinoline] | 4.58
Oc1c(CN2CCCCC2)ccc2cccnc12 | 3.22

* * *

Tested on: MES-SA cells
Test: ROS determination with DCFDA, MES-SA
Assay type: cell-based, human
Conditions: 6.25 µM, 2 h, presence of 5 mM NAC (brackets)

compound | Fold change in fluorescence (DCFDA)
Oc1c(CN2CCOCC2)cc(Cl)c2cccnc12 | 1.600
Oc1c(CN2CCCCC2)cc(Cl)c2cccnc12 | 1.307
Oc1c(CNCc2ccccc2F)cc(Cl)c2cccnc12 | 1.030
Oc1c(CN2CCOCC2)ccc2cccnc12 | 1.096
Oc1cccc2cccnc12 [Compound Q-1, 8-Hydroxyquinoline] | 1.261
Oc1ccc(Cl)c2cccnc12 | 1.668
Oc1c(CN2CCCCC2)ccc2cccnc12 | 1.097
